Entry source: ChEMBL document CHEMBL1125826

System: Escherichia coli
Test: The in vivo potency was determined in female charles river CD-1 mice infected with Escherichia coli after peroral administration
Type: functional
Conditions: Escherichia coli, po; read-out: PD50
Field 'label' (enum: Met / Not met). Set to Met when ED50 is strictly under 2 mg/kg; else Not met.

// query Given the entry CC1COc2c(N3CCC(N)C3)c(F)c(N)c3c(=O)c(C(=O)O)cn1c23 (stereo not given) , would its reported ED50 be below 2 mg/kg?
// result Not met

Next:
// query Please let me know if CCNCC1CCN(c2c(F)c(N)c3c(=O)c(C(=O)O)cn4c3c2OCC4C)C1 (stereo not given) shows ED50 below 2 mg/kg.
// result Not met

// query Lab log: compare recorded ED50 with 2 mg/kg; is it strictly lower for Nc1c(F)c(N2CCNCC2)c(F)c2c1c(=O)c(C(=O)O)cn2C1CC1 ?
// result Met

// query Determine if CCNCC1CCN(c2cc3c(cc2F)c(=O)c(C(=O)O)cn3C2CC2)C1 (stereo not given) shows ED50 strictly lower than 2 mg/kg.
// result Not met

// query Quick check: does CCNCC1CCN(c2c(F)cc3c(=O)c(C(=O)O)cn4c3c2OCC4C)C1 (stereo not given) have ED50 under 2 mg/kg?
// result Not met

// query Bench note: check whether CC1CN(c2cc3c(cc2F)c(=O)c(C(=O)O)cn3C2CC2)CCN1 (stereo not given) shows ED50 below 2 mg/kg
// result Met

* * *

Test system: Staphylococcus aureus
Test: Antibacterial activity was determined against gram positive organism, Staphylococcus aureus H228
Type: functional
Conditions: Staphylococcus aureus; read-out: MIC
recorded.metric: MIC (µg/mL)
Respond numerically; units are µg/mL and should not be typed.

Reference set, count: 3
Kindly note the recorded MIC for CC1CN(c2c(F)c(N)c3c(=O)c(C(=O)O)cn(C4CC4)c3c2Cl)CC(C)N1 (centres undefined) , which is 0.1

The molecule Nc1c(F)c(N2CCC(N)C2)cc2c1c(=O)c(C(=O)O)cn2C1CC1 (centres undefined) showed MIC equal to 0.1

Data point: CCNCC1CCN(c2c(F)c(O)c3c(=O)c(C(=O)O)cn(CC)c3c2F)C1 (centres undefined) ; MIC = 0.4

Further cases:
The recorded MIC for CC1CN(c2c(F)cc3c(=O)c(C(=O)O)cn(C4CC4)c3c2F)CC(C)N1 (centres undefined) is 0.2

Sure, the documented MIC for CC1COc2c(N3CCC(N)C3)c(F)cc3c(=O)c(C(=O)O)cn1c23 (centres undefined) is 1.6

Lab book: MIC of CC1CN(c2cc3c(cc2F)c(=O)c(C(=O)O)cn3-c2ccc(F)cc2F)CCN1 (centres undefined) [TEMAFLOXACIN] noted as 0.1

Reported MIC for CC1CN(c2c(F)c(O)c3c(=O)c(C(=O)O)cn(C4CC4)c3c2F)CCN1 (centres undefined) was 0.8

Lab note: measured MIC of CCNCC1CCN(c2c(F)cc3c(=O)c(C(=O)O)cn(C4CC4)c3c2F)C1 (centres undefined) [PD-117558] was 0.05

Form: molecule = CCNCC1CCN(c2cc3c(cc2F)c(=O)c(C(=O)O)cn3CC)C1 (centres undefined) ; MIC = 0.2

Query Nc1c(F)c(N2CCNCC2)c(Cl)c2c1c(=O)c(C(=O)O)cn2C1CC1 yields MIC of 0.1

// recorded MIC for NC1CCN(c2c(F)cc3c(=O)c(C(=O)O)cn(C4CC4)c3c2F)C1 (centres undefined) : 0.05

Entry under test: NC1CCN(c2c(F)c(O)c3c(=O)c(C(=O)O)cn(C4CC4)c3c2F)C1 (centres undefined) . Its MIC was 0.1

# molecule O=C(O)c1cn(C2CC2)c2c(Cl)c(N3CCNCC3)c(F)cc2c1=O ; its MIC = 0.1

// sample CCNCC1CCN(c2c(F)c(N)c3c(=O)c(C(=O)O)cn(C4CC4)c3c2Cl)C1 (centres undefined) , its MIC was 0.1

* * *

Test system: Bacteria
Test: Antibacterial activity was determined against gram negative organism, Providencia rettgeri. M1771
Assay type: functional
Settings: Bacteria; read-out: MIC
recorded.metric: MIC
I'd appreciate it if you wrote the number followed by its unit.

Answered examples (2):
Entry CCNCC1CCN(c2c(F)cc3c(=O)c(C(=O)O)cn(C4CC4)c3c2Cl)C1 (stereo not drawn) ; MIC = 0.2 µg/mL

Documented MIC of C[C@@H]1CN(c2c(F)c(N)c3c(=O)c(C(=O)O)cn(C4CC4)c3c2F)C[C@H](C)N1 : 0.2 µg/mL

Further cases:
// sample CC1CN(c2c(F)c(N)c3c(=O)c(C(=O)O)cn(C4CC4)c3c2Cl)CCN1 (stereo not drawn) , its MIC was 0.2 µg/mL

* * *

Consider the following compounds and their measured ED50 readings.
Tested on: Escherichia coli
Assay: The in vivo potency was determined in female charles river CD-1 mice infected with Escherichia coli after peroral administration
Assay type: functional
Conditions: Escherichia coli, po; read-out: PD50
Report only the number, with the unit mg/kg understood.

See these solved cases before continuing.
Case Nc1c(F)c(N2CCNCC2)c(Cl)c2c1c(=O)c(C(=O)O)cn2C1CC1 , Escherichia coli, ED50 recorded as 2

Readout ED50 for CC1CN(c2cc3c(c(N)c2F)c(=O)c(C(=O)O)cn3C2CC2)CCN1 (stereo unspecified) , test system Escherichia coli, was 2

Tested on Escherichia coli: CC1CN(c2c(F)c(N)c3c(=O)c(C(=O)O)cn(C4CC4)c3c2Cl)CC(C)N1 (stereo unspecified) . Observed ED50: 2

Known value: Escherichia coli ED50 of the compound NC1CCN(c2c(F)cc3c(=O)c(C(=O)O)cn(C4CC4)c3c2F)C1 (stereo unspecified) equals 0.9

Kindly note: Escherichia coli, CC1CN(c2c(F)c(N)c3c(=O)c(C(=O)O)cn(C4CC4)c3c2Cl)CCN1 (stereo unspecified) , ED50 value reported: 0.7

Now turn to the next compound.
Summary: CCNCC1CCN(c2c(F)c(N)c3c(=O)c(C(=O)O)cn(C4CC4)c3c2Cl)C1 (stereo unspecified) , Escherichia coli, ED50 = 32

* * *

Tested on: Staphylococcus aureus
Assay: Antibacterial activity was determined against gram positive organism, Staphylococcus aureus UC76
Format: functional
Conditions: Staphylococcus aureus; read-out: MIC
recorded.metric: MIC (µg/mL)
Field format: number, assumed µg/mL, no unit text.

// CCn1cc(C(=O)O)c(=O)c2c(N)c(F)c(N3CC(C)NC(C)C3)c(F)c21 (stereo not given) : MIC value = 0.8

Memo: Nc1c(F)c(N2CCC(N)C2)c(F)c2c1c(=O)c(C(=O)O)cn2C1CC1 (stereo not given) , reported MIC: 0.013

Form: compound = CCNCC1CCN(c2c(F)cc3c(=O)c(C(=O)O)cn4c3c2OCC4C)C1 (stereo not given) ; MIC = 0.025

Short answer for CCn1cc(C(=O)O)c(=O)c2c(O)c(F)c(N3CC(C)NC(C)C3)c(F)c21 (stereo not given) : MIC was 3.1

Query CC1CN(c2c(F)c(O)c3c(=O)c(C(=O)O)cn(C4CC4)c3c2F)CCN1 (stereo not given) yields MIC of 0.1

Now consider a different compound.
Item: Nc1c(F)c(N2CCNCC2)cc2c1c(=O)c(C(=O)O)cn2C1CC1 | MIC: 0.025

* * *

Target: DNA gyrase (Escherichia coli) (UniProt P0AES6+P0AES4)
Test: Minimum inhibitory concentration against Escherichia coli DNA-gyrase in supercoiling assay
Type: functional
recorded.metric: MIC
Param answer (str): number followed by unit.

Worked set:
// MIC lookup, compound = CCn1cc(C(=O)O)c(=O)c2cc(F)c(N3CCNCC3)c(Cl)c21 , result: 2.5 µg/mL

Sample CC1CN(c2cc3c(cc2F)c(=O)c(C(=O)O)cn3-c2ccc(F)cc2F)CCN1 (centres undefined) ; MIC observed: 0.75 µg/mL

# MIC (compound: CCn1cc(C(=O)O)c(=O)c2cc(F)c(N3CCNC(C)C3)c(Cl)c21 (centres undefined) ) is 5 µg/mL

Continuing:
Just so you know, measured MIC for O=C(O)c1cn(C2CC2)c2cc(N3CCNCC3)c(F)c(O)c2c1=O came out at 1 µg/mL

* * *

Tested on: Staphylococcus aureus
Experiment: Antibacterial activity was determined against gram positive organism, Staphylococcus aureus H228
Type: functional
Conditions: Staphylococcus aureus; read-out: MIC
recorded.metric: log10(MIC) (log10 of the value in µg/mL)
Please keep in mind that the values are log10 of MIC expressed in µg/mL.

Some entries whose results are on file:
The reported value for CC1CN(c2cc3c(cc2F)c(=O)c(C(=O)O)cn3C2CC2)CC(C)N1 (stereo not drawn) in terms of log10(MIC) is -0.70

According to the records, this molecule CCNCC1CCN(c2cc3c(cc2F)c(=O)c(C(=O)O)cn3C2CC2)C1 (stereo not drawn) displays log10(MIC) of -0.40

log10(MIC) reading for CC1CN(c2cc3c(cc2F)c(=O)c(C(=O)O)cn3C2CC2)CCN1 (stereo not drawn) : -0.40

Further cases:
Form: molecule = CCNCC1CCN(c2c(F)c(N)c3c(=O)c(C(=O)O)cn4c3c2OCC4C)C1 (stereo not drawn) ; log10(MIC) = -0.10

In plain terms, CCn1cc(C(=O)O)c(=O)c2c(O)c(F)c(N3CCNC(C)C3)c(F)c21 (stereo not drawn) has a documented log10(MIC) of 0.80

Record CCn1cc(C(=O)O)c(=O)c2cc(F)c(N3CCC(N)C3)c(F)c21 (stereo not drawn) . Reported log10(MIC): -0.40

Note to self: log10(MIC) recorded for CCn1cc(C(=O)O)c(=O)c2cc(F)c(N3CCNCC3)c(Cl)c21 was -0.40

Looking up Nc1c(F)c(N2CCC(N)C2)c(F)c2c1c(=O)c(C(=O)O)cn2C1CC1 (stereo not drawn) , I see its log10(MIC) listed as -1.30

Form: molecule = CCn1cc(C(=O)O)c(=O)c2c(N)c(F)c(N3CCC(N)C3)c(F)c21 (stereo not drawn) ; log10(MIC) = -0.40

Lookup result for CC1CN(c2cc3c(c(N)c2F)c(=O)c(C(=O)O)cn3C2CC2)CCN1 (stereo not drawn) ; measured log10(MIC): -0.70

Looking up CCn1cc(C(=O)O)c(=O)c2cc(F)c(N3CCC(N)C3)cc21 (stereo not drawn) , I see its log10(MIC) listed as -0.10

Entry Nc1c(F)c(N2CCNCC2)c(F)c2c1c(=O)c(C(=O)O)cn2C1CC1 ; log10(MIC) = -1.30

Item: CCn1cc(C(=O)O)c(=O)c2cc(F)c(N3CCC(N)C3)c(Cl)c21 (stereo not drawn) | log10(MIC): -0.40
